pIC50: −log10 of the molar value.
Compiled literature pIC50, tested on Matrix metalloproteinase-9 (Homo sapiens, UniProt P14780).
property_name: pIC50

1) NCCCOc1ccc(C[C@H](NS(=O)(=O)c2ccc(-c3ccccc3)cc2)C(=O)NO)cc1; 7.42
2) O=C(O)c1csc(CN(Cc2ccc(F)cc2)Cc2ccc(-c3ccccc3)cc2)n1; 4.70
3) N=C(N)NCCCOc1ccc(C[C@H](NS(=O)(=O)c2ccccc2)C(=O)NO)cc1; 5.89
4) COCc1ccccc1NCc1ccc([C@H]2[C@@H](O)CCCc3cncn32)c(-c2ccccc2Cl)c1; 5.42
5) Cc1ccc(C(=O)Nc2ccc(S(=O)(=O)NC(P(=O)(O)O)P(=O)(O)O)cc2)cc1; 6.17
6) O=C(CCCNC(=O)c1cccc(C(=O)NCCCC(=O)NCCC[C@@H](NS(=O)(=O)c2ccc(OCc3cc(Br)cc(Br)c3)cc2)C(=O)NO)c1)NCCC[C@@H](NS(=O)(=O)c1ccc(OCc2cc(Br)cc(Br)c2)cc1)C(=O)NO; 5.48
7) O=C(O)c1csc(CN(Cc2ccc(F)cc2)Cc2ccc(OCc3cccnc3)cc2)n1; 4.43
8) O=C(O)c1csc(CN(Cc2ccc(F)cc2)Cc2ccc(OCc3ccccc3)cc2)n1; 4.82
9) CC(=O)Nc1ccccc1OCc1nnc(SCC(=O)Nc2ccccc2)o1; 5.78
10) O=C(Nc1ccccc1)Nc1ccc(S(=O)(=O)NC(P(=O)(O)O)P(=O)(O)O)cc1; 4.86
11) O=C(O)c1c[nH]c(CN(Cc2ccc(F)cc2)Cc2ccc(OC(c3ccccc3)c3ccccc3)cc2)n1; 5.10
12) O=C(Nc1ccc(S(=O)(=O)NC(P(=O)(O)O)P(=O)(O)O)cc1)c1ccccc1; 5.64
13) N#C/C(=C\c1cn(Cc2ccc(Cl)cc2)c2ccccc12)c1nn(-c2ccccc2)c(N)c1C#N; 4.18
14) CC(=O)Nc1ccccc1OCc1nnc(SCC(=O)Nc2ccc([N+](=O)[O-])cc2)o1; 4.66
15) O=P(O)(O)C(NS(=O)(=O)c1cccc2ccccc12)P(=O)(O)O; 4.24
16) O=C(NCCC[C@@H](NS(=O)(=O)c1ccc(OCc2cc(Br)cc(Br)c2)cc1)C(=O)NO)NCCC[C@@H](NS(=O)(=O)c1ccc(OCc2cc(Br)cc(Br)c2)cc1)C(=O)NO; 4.87
17) O=C(Nc1ccc(S(=O)(=O)NC(P(=O)(O)O)P(=O)(O)O)cc1)c1ccc2ccccc2c1; 4.12
18) C/C(=N\NC(=O)Cc1ccc([N+](=O)[O-])cc1)c1ccc(NC(=O)c2ccc(Br)o2)cc1; 4.17

====

Compiled literature IC50, tested on Matrix metalloproteinase-9 (Homo sapiens).
property_name: IC50

1. O=C(O)c1csc(CN(Cc2ccncc2)Cc2ccc(OCc3ccccc3)cc2)n1; ≥ 500 µM
2. COc1ccccc1C(=O)NNC(=O)CCC(=O)NO; > 10 µM
3. O=C(Nc1ccc(S(=O)(=O)NC(P(=O)(O)O)P(=O)(O)O)cc1)c1cccc(Br)c1; > 100 µM
4. N#Cc1ccc(C2C(O)CCCc3cncn32)c(-c2ccccc2Cl)c1 (stereo not shown); > 100 µM
5. O=P(O)(O)C(NS(=O)(=O)c1ccc(-c2ccccc2)cc1)P(=O)(O)O; > 100 µM
6. O=C(O)c1csc(CN(Cc2ccc(OCc3ccccc3)cc2)Cc2cccnc2)n1; ≥ 500 µM
7. COc1cc(OC)nc(SCc2nnc(SCC(=O)NO)n2-c2ccc(N(C)C)cc2)n1; > 100 µM
